Each recorded value in this set is attributed to patent US20090311217A1.

target under test: PI3K-alpha (Homo sapiens, UniProt P42336)
Sequence (P42336 whole entry, species assumed): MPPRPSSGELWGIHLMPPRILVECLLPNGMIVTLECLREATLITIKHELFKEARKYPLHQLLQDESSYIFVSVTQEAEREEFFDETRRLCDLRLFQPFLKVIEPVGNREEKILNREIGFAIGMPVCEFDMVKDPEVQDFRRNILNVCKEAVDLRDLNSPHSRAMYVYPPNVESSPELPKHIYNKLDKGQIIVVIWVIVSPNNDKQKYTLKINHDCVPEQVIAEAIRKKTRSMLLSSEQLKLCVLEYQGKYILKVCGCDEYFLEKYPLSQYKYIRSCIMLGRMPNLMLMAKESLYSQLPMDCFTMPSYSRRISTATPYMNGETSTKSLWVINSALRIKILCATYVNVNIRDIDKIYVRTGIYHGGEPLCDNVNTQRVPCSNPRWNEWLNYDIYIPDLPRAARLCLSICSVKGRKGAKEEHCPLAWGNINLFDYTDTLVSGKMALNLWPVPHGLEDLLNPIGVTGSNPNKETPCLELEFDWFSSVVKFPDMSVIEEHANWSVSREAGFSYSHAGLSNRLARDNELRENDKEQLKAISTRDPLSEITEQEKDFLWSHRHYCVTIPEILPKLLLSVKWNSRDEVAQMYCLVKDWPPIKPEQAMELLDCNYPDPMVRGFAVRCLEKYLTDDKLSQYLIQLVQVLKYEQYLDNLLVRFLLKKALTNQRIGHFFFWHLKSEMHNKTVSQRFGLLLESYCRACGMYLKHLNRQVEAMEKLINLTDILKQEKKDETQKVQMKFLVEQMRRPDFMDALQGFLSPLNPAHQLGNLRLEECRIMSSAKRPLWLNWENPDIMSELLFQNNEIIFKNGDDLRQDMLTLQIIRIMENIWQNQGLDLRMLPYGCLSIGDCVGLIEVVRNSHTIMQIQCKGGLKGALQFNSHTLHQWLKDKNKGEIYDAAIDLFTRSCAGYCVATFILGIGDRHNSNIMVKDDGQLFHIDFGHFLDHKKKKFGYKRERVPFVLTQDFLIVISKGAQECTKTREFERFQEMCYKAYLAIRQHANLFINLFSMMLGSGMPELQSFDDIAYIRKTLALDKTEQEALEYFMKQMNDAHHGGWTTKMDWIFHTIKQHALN
Sequence (P27986 whole entry partner, species assumed): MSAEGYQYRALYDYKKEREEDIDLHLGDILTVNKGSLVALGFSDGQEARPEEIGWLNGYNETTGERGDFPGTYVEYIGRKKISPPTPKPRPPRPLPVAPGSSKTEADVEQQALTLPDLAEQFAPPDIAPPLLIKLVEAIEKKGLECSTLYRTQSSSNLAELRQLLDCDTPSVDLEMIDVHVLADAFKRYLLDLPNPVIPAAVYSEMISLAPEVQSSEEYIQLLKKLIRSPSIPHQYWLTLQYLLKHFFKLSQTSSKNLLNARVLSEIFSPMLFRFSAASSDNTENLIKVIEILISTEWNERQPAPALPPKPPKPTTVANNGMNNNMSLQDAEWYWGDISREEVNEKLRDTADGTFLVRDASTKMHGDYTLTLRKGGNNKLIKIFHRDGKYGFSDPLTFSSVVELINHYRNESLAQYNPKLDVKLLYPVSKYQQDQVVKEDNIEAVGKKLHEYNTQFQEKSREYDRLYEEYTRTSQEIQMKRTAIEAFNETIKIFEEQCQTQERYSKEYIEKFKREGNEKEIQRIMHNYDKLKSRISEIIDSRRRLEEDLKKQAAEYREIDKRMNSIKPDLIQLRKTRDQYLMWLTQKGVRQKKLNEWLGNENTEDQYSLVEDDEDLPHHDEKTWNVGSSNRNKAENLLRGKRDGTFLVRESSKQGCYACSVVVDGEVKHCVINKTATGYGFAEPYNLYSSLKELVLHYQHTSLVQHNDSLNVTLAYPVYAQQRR
assay: PI3K-alpha fluorescence polarization assay
Assay type: biochemical
condition info: read-out: PI3Kα Avg. IC50
measurement kind: log10(IC50) (log10 of the value in nM)

# smiles input, obs value
rows = [
    ("CNC(=O)Nc1ccc2c(c1)C(=O)/C(=C/c1c(-c3nn(C)cc3C(F)(F)F)[nH]c3ccc(OC)cc13)O2", 0.67),
    ("CNC(=O)Nc1ccc2c(c1)C(=O)/C(=C/c1c(C(=O)N(C)CCN(C)C)[nH]c3ccc(OC)cc13)O2", 1.61),
    ("COc1ccc2[nH]cc(/C=C3\\Oc4cc(-c5nn[nH]n5)ccc4C3=O)c2c1", 2.68),
    ("CC(=O)Nc1ccc(-c2cccc3c2c(/C=C2\\Oc4cc(O)cc(O)c4C2=O)cn3C)cc1", 2.88),
    ("COc1ccc2c(c1)c(/C=C1\\Oc3cc(O)cc(O)c3C1=O)c(C1CC1)n2CCN1CCC(O)CC1", 0.48),
    ("CC(=O)c1ccc(-c2cccc3c2c(/C=C2\\Oc4cc(O)cc(O)c4C2=O)cn3C)cc1", 2.87),
    ("Cn1cc(/C=C2\\Oc3cc(O)cc(O)c3C2=O)c2c(-c3ccc(C#N)nc3)cccc21", 3.26),
]

====

target under test: PI3K-gamma (Homo sapiens, UniProt P48736)
Sequence (P48736 whole entry, species assumed): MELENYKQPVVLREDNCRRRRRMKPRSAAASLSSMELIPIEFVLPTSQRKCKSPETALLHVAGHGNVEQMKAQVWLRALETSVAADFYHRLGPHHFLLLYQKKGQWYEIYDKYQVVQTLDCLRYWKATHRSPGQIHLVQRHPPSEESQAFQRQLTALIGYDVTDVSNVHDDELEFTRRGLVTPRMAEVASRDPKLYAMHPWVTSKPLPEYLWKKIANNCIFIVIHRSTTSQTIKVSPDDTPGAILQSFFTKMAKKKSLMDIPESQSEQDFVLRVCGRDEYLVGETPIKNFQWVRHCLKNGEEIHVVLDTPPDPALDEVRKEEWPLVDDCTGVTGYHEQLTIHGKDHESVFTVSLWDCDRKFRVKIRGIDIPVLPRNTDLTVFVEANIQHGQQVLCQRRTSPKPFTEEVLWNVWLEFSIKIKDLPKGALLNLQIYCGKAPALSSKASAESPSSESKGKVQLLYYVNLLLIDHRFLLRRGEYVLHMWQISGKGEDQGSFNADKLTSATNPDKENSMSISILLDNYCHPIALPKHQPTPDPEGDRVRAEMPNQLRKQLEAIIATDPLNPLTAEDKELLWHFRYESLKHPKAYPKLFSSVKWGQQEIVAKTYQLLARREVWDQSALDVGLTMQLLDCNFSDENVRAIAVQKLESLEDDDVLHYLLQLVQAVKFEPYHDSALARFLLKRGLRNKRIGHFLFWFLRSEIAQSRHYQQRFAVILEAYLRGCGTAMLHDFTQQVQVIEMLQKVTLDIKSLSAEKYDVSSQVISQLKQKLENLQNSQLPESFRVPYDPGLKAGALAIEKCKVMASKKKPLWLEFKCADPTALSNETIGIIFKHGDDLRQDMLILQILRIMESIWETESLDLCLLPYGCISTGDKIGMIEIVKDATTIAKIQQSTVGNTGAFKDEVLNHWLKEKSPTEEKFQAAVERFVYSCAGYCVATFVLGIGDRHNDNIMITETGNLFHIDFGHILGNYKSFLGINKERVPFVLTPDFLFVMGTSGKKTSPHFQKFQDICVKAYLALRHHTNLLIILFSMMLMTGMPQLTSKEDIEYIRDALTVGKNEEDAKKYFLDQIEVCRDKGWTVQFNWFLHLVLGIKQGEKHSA
assay: PI3K-gamma fluorescence polarization assay
Format: biochemical
condition info: PI3Kγ Avg. IC50
Protocol: PI3K-Alpha, PI3K-Beta, PI3K-Gamma, and PI3K-delta Fluorescence Polarization Assay Protocols PI3-Kinase reactions were performed in 5 mM HEPES, pH 7, 2.5 mM MgCl2, and 25 μM ATP, with diC8-PI(4,5)P2 (Echelon, Salt Lake City Utah) as substrate. Nunc 384-well black polypropylene fluorescent plates were used for PI3K assays. […] Assay Plates were read on Perkin-Elmer Envision plate readers with appropriate filters for Tamra [BODIPY-TMRI(1,3,4,5)P4]. […]

# compound, sign, IC50 (nM)
rows = [
    ("CNC(=O)Nc1ccc2c(c1)C(=O)/C(=C/c1c(C3=CCNCC3)n(CCN3CCN(C)CC3)c3ccc(OC)cc13)O2 [Compound 607]", "=", 4220),
    ("COc1ccc2c(c1)c(/C=C1\\Oc3ccc(NC(=O)NCCCO)cc3C1=O)cn2CCCN(C)C [Compound 568]", "=", 3390),
    ("COc1ccc2[nH]cc(C=C3Oc4cccc(O)c4C3=O)c2c1 [Example 78]", "=", 1200),
    ("COc1ccc2c(c1)c(/C=C1\\Oc3cc(O)cc(O)c3C1=O)cn2CC(=O)N(C)C [Example 318]", "=", 686),
    ("CNC(=O)Nc1ccc2c(c1)C(=O)/C(=C/c1c(C)n(CCCN3CCC(O)CC3)c3ccc(OC)cc13)O2 [Compound 587]", "=", 982),
    ("Cn1cc(/C=C2\\Oc3cccc(O)c3C2=O)c2ccccc21 [Example 441]", ">", 10000),
    ("CNC(=O)Nc1ccc2c(c1)C(=O)/C(=C/c1c(C)n(CCCN3CCCC3)c3ccc(OC)cc13)O2 [Compound 597]", "=", 448),
    ("CNC(=O)Nc1ccc2c(c1)C(=O)/C(=C/c1c(C(=O)NC(C)(C)CO)[nH]c3ccc(OC)cc13)O2 [Compound 622]", "=", 39),
    ("COc1ccc2c(c1)c(C=C1Oc3cc(O)cc(O)c3C1=O)c(C)n2CCCCN1CCN(CCN2CCOCC2)CC1 [Example 100]", "=", 283),
    ("COc1cc(F)c2[nH]c(-c3c(C)nn(C)c3C)c(/C=C3\\Oc4ccc(NC(=O)Nc5ccc(C(=O)N6CCOCC6)cc5)cc4C3=O)c2c1 [Compound 731]", "=", 1.5),
    ("COc1ccc2c(c1)c(C=C1Oc3cc(O)cc(O)c3C1=O)c(C)n2CCCCN1CCN(C)CC1 [Example 96]", "=", 238),
    ("COc1ccc2[nH]c(-c3cnn(C)c3)c(/C=C3\\Oc4cc(O)cc(O)c4C3=O)c2c1 [Example 330]", "=", 3),
    ("COc1ccc2c(c1)c(C=C1Oc3c(ccc(O)c3O)C1=O)c(C)n2C [Example 90]", "=", 1220),
    ("COc1ccc2c(c1)c(C=C1Oc3cc(O)cc(O)c3C1=O)c(C)n2CCCCN1CCOCC1 [Example 97]", "=", 138),
    ("CNC(=O)Nc1ccc2c(c1)C(=O)/C(=C/c1c(-c3ccc(CN(C)C)cc3)[nH]c3ccc(OC)cc13)O2 [Compound 624]", "=", 23),
    ("Cc1[nH]c2ccc(Br)cc2c1/C=C1\\Oc2cc(O)cc(O)c2C1=O [Example 61]", "=", 2220),
]
